- ASSAY NAME: self-splicing fitness, log relative to wild type (ln ratio); higher = more splicing; Tetrahymena group I intron in knt gene, E. coli kanamycin selection, DiMSum; sequences stand for … in CUCUCU…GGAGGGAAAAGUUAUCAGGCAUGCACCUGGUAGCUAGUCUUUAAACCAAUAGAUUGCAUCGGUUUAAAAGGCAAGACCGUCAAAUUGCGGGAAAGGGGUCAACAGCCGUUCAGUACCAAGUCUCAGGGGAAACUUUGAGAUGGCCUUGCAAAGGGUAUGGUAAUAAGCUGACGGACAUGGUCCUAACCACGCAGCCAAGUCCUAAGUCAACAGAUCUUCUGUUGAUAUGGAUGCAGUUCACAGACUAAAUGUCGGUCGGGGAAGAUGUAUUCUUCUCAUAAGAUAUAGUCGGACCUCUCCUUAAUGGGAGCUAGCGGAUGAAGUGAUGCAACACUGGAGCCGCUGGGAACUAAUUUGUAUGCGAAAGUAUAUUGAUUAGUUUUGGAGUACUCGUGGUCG;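 further: selection with 25 µg/mL kanamycin versus none on LB agar overnight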
- EXPERIMENTAL SETUP: 37 °C
For each entry below, report its self-splicing fitness (ln) value.
I'd appreciate a reply containing only the number, no unit.

I have this sequence here, GGUUAGCAAUAUUACGUGCA , and I need its recorded self-splicing fitness (ln). -0.121

Bench note: what self-splicing fitness (ln) did CGUAAGCAAUAUUACGUGGG show? -2.67

Endpoint output: self-splicing fitness (ln) of AGGGAGCAAUAUUACGAGAG . Value? -3.84

// query self-splicing fitness (ln) value for entry AUGUAGCAAUAUUACGACGU 0.442

self-splicing fitness (ln) lookup needed for UUAGAGCAAUAUUACGGGAU , thanks. -2.97

Could you share which self-splicing fitness (ln) value was measured for UCAUAGCAAUAUUACGUUUA ? -2.11

What self-splicing fitness (ln) value was documented for this sequence, CUGAAGCAAUAUUACGCCGG ? -1.19

Query (sequence): GAGUAGCAAUAUUACGCCAG ; field requested: self-splicing fitness (ln) -2.75

Query: self-splicing fitness (ln); subject: UAGAAGCAAUAUUACGGAGA -2.46

What self-splicing fitness (ln) value was documented for this sequence, UAACAGCAAUAUUACGCAGU ? -3.5

Record request: self-splicing fitness (ln) value, item CGCCAGCAAUAUUACGAAGA -2.2

Recorded self-splicing fitness (ln) for CGUGAGCAAUAUUACGCAUU , please? -2.15

What does the data say about its self-splicing fitness (ln)? Entry: GGGGAGCAAUAUUACGAUCA -0.807

Entry UCUGAGCAAUAUUACGUGGU has what self-splicing fitness (ln)? -2.21

# get_value(readout='self-splicing fitness (ln)', item= GUAAAGCAAUAUUACGUGCC ) -1.93

# lookup: self-splicing fitness (ln) of UCAUAGCAAUAUUACGCAGU -3.4

Using the record for AAGUAGCAAUAUUACGGGAG , report its self-splicing fitness (ln). -2.82

Can you look up the measured self-splicing fitness (ln) of CAGCAGCAAUAUUACGGACU for me? -1.41

Suppose we examine the sequence CCGCAGCAAUAUUACGAGCA ; what self-splicing fitness (ln) value has been reported? -3.24

Value lookup for self-splicing fitness (ln); key = CACAAGCAAUAUUACGAGUG -2.02

Tell me the measured self-splicing fitness (ln) of UCCGAGCAAUAUUACGUUCC , please. -3.16

Entry AAUAAGCAAUAUUACGUUUG has what self-splicing fitness (ln)? -1.36

I'd like to know its self-splicing fitness (ln). The sequence in question is UAGCAGCAAUAUUACGACAG -0.68

// returns reported self-splicing fitness (ln) for input CGGUAGCAAUAUUACGCUUG -0.206

Fill in the blank: the reported self-splicing fitness (ln) of AGUUAGCAAUAUUACGAGAG is ____. -2.24

Need self-splicing fitness (ln), item UGUCAGCAAUAUUACGCGUG 0.117

Request the reported self-splicing fitness (ln) associated with AUGAAGCAAUAUUACGGGCC -0.73

Param item = GUCCAGCAAUAUUACGCCAG ; retrieve measured self-splicing fitness (ln). -1.15

If you can, please state the reported self-splicing fitness (ln) value of GUCUAGCAAUAUUACGACAA . -1.56

Item under review: GCCCAGCAAUAUUACGUGGG . Reported self-splicing fitness (ln)? -3.07

Which measured self-splicing fitness (ln) value corresponds to CCAGAGCAAUAUUACGAUAA ? -2.04

Which self-splicing fitness (ln) value belongs to GAACAGCAAUAUUACGGUUG ? -0.692

Fill blank: measured self-splicing fitness (ln) of the sequence CUCCAGCAAUAUUACGCAUU is ____. -3.51

Dear colleague, I am looking for the recorded self-splicing fitness (ln) of the following sequence: GGGUAGCAAUAUUACGUUAC -4.17
